# target-under-test: LCK (Homo sapiens)
# Construct: purchased ProQinase
# Sequence (P06239 whole entry): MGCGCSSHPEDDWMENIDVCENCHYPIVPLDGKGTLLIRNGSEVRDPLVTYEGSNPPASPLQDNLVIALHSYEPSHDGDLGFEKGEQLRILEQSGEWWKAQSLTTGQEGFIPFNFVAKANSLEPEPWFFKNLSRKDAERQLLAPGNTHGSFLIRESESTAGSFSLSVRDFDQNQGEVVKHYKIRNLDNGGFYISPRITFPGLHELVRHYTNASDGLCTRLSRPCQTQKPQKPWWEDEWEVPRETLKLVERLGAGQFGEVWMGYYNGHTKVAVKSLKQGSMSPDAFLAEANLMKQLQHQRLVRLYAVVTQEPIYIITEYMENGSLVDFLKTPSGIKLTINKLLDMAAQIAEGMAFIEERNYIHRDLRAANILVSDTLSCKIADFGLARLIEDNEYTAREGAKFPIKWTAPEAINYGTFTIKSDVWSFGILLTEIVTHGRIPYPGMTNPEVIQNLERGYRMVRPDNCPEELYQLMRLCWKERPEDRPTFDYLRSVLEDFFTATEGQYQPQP
# protocol-text: Human LCK enzymatic assay (AlphaScreen, Poly (Glu4-Tyr) substrate)
# Type: biochemical
# conditions-used: 100 uM ATP; read-out: LCK IC50 (uM) COFACTOR: 100 uM ATP
recorded-endpoint: IC50

INSERT INTO results (smiles_entry, recorded_endpoint, experimental_value) VALUES
  ('Nc1cc2c(cn1)cc(-c1c(F)ccc(NS(=O)(=O)c3ccc4ncsc4c3F)c1F)c(=O)n2CC(F)(F)F', 'IC50', '0.5 to 5 µM');

Provide the reported IC50 of each entry below, same order.
1. Nc1cc2c(cn1)cc(-c1c(F)ccc(NS(=O)(=O)c3ccc4ncsc4c3)c1F)c(=O)n2CC(F)F
2. Nc1cc2c(cn1)cc(-c1cccc(NS(=O)(=O)c3cc4scnc4cc3F)c1F)c(=O)n2C1CC1
3. COCCNc1cc2c(cn1)cc(-c1c(F)ccc(NS(=O)(=O)c3cc4scnc4cc3F)c1F)c(=O)n2CC1CC1
4. CNc1cc2c(cn1)cc(-c1c(F)ccc(NS(=O)(=O)c3cc4scnc4cc3F)c1F)c(=O)n2CC1CC1
5. Nc1cc2c(cn1)cc(-c1c(F)ccc(NS(=O)(=O)c3cc4scnc4cc3F)c1F)c(=O)n2CC(F)(F)F

Result:
1. 0.5 to 5 µM
2. 5 to 100 µM
3. 5 to 100 µM
4. 5 to 100 µM
5. 0.5 to 5 µM

# batch size: 5; output IC50 per entry
1. Nc1cc2c(cn1)cc(-c1c(F)ccc(NS(=O)(=O)c3ccc4ncsc4c3F)c1F)c(=O)n2CC(F)F
2. O=c1c(-c2c(F)ccc(NS(=O)(=O)c3cc4scnc4cc3F)c2F)cc2cnc(NCCO)cc2n1C1CC(F)(F)C1
3. Nc1cc2c(cn1)cc(-c1c(F)ccc(NS(=O)(=O)c3cc4scnc4cc3F)c1F)c(=O)n2CC1CC1
4. Nc1cc2[nH]c(=O)c(-c3c(F)ccc(NS(=O)(=O)c4cc5scnc5cc4F)c3F)cc2cn1
5. Nc1cc2c(cn1)cc(-c1c(F)ccc(NS(=O)(=O)c3cc4scnc4cc3F)c1F)c(=O)n2CC(F)(F)C1CC1

Result:
["0.5 to 5 µM", "5 to 100 µM", "0.5 to 5 µM", "5 to 100 µM", "5 to 100 µM"]

Parameters: items (list). Returns: IC50 for each item.
1. Nc1cc2c(cn1)cc(-c1c(F)ccc(NS(=O)(=O)c3cc4scnc4cc3F)c1F)c(=O)n2CC(F)F
2. O=c1c(-c2c(F)ccc(NS(=O)(=O)c3cc4scnc4cc3F)c2F)cc2cnc(NCCO)cc2n1C1CC1

Result:
5 to 100 µM
5 to 100 µM

Count: 2. Required value per item: IC50.
1. CC1(n2c(=O)c(-c3c(F)ccc(NS(=O)(=O)c4cc5scnc5cc4F)c3F)cc3cnc(N)cc32)CC1
2. O=c1c(-c2c(F)ccc(NS(=O)(=O)c3cc4scnc4cc3F)c2F)cc2cnccc2n1CC1CC1

Result:
["5 to 100 µM", "5 to 100 µM"]
